Where these numbers come from: patent US20220195012A1

- test.target: CP C3-convertase (C4b2a) (UniProt P0C0L4 757-1446; P0C0L4 20-675; P0C0L4 1454-1744; P06681 244-752)
- Sequence (P0C0L4 757-1446 limits assumed, chain 1 of 4): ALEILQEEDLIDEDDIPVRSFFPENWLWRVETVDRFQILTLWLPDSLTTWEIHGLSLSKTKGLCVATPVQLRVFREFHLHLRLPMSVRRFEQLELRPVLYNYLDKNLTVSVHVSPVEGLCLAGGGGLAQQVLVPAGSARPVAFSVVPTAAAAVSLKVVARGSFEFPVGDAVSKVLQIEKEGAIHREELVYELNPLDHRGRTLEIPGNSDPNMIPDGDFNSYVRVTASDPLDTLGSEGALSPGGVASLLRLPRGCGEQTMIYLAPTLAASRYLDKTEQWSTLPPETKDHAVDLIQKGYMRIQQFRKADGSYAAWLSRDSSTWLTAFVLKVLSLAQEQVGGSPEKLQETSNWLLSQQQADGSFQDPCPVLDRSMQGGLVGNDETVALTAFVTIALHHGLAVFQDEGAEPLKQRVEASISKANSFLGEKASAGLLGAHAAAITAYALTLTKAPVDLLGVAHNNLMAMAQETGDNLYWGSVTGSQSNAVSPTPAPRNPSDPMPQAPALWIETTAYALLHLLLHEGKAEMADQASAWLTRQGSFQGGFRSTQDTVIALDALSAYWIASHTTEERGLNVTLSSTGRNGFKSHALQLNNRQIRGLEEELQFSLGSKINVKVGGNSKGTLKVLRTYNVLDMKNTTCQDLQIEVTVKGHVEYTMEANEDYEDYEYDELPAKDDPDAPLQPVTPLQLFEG
- Sequence (P0C0L4 20-675 limits assumed, chain 2 of 4): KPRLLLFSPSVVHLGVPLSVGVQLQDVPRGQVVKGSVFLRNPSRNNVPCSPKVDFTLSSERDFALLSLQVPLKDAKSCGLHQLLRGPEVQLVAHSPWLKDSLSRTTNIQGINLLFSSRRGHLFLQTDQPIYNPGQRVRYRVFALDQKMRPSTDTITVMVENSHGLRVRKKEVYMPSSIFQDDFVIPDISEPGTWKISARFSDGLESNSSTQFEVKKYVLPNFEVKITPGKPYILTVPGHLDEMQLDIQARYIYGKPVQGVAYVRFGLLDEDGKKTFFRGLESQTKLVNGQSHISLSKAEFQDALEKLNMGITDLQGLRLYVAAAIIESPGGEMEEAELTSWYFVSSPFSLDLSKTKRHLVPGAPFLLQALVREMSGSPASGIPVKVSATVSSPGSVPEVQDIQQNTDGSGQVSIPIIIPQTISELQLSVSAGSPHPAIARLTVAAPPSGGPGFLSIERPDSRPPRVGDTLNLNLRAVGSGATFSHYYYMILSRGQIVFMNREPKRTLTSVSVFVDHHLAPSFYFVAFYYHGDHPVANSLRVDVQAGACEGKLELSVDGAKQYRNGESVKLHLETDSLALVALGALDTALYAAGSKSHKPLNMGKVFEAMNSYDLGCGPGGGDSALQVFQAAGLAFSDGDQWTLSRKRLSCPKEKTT
- Sequence (P0C0L4 1454-1744 limits assumed, chain 3 of 4): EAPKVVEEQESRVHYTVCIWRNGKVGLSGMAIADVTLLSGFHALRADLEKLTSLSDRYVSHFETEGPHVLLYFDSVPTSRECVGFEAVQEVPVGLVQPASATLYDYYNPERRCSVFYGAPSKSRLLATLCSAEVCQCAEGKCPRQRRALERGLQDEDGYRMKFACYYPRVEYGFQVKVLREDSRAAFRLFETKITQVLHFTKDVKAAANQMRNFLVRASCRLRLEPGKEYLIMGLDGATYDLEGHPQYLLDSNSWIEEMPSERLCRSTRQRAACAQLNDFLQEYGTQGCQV
- Sequence (P06681 244-752 limits assumed, chain 4 of 4): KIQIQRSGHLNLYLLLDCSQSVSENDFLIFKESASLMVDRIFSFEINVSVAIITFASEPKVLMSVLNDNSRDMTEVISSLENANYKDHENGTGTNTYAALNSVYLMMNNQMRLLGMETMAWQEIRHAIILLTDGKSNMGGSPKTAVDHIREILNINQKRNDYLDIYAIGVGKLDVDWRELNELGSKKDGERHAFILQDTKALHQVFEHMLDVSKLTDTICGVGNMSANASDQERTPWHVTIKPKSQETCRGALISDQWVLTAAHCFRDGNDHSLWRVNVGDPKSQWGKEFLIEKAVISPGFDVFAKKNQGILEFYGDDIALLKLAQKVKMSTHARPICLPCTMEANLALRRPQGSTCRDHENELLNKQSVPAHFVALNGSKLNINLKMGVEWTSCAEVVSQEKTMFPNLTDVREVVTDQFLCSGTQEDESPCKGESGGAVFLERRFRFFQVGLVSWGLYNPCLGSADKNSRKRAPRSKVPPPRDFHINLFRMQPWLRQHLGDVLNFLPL
- experimental.details: cell-based or functional assay
measurement.name: Relative CP-DAA
# print the numeric value only

binder: D2D3M3M4 (Multi-4) (other) CEVPTRLNSASLKQPYITQNYFPVGTVVEYECRPGYRREPSLSPKLTCLQNLKWSTAVEFCKKKSCPNPGEIRNGQIDVPGGILFGATISFSCNTGYKLIGKTSSFCLISGSSVQWSDKLPICEKVLCTPPPKIKNGKHTFSEVEVFEYLDAVTYSCDPAPGPDPFSLIGESTIYCGDNSVWSRAAPECKVVKCRFPVVENGKQISGFGKKFYYKATVMFECDKGFYLDGSDTIVCDSNSTWDPPVPKCLKVL
Relative CP-DAA: 0.4

Request: What measured Relative CP-DAA goes with Human DAF (D1-D4), decay-accelerating factor (other) CGLPPDVPNAQPALEGRTSFPEDTVITYKCEESFVKIPGEKDSVICLKGSQWSDIEEFCNRSCEVPTRLNSASLKQPYITQNYFPVGTVVEYECRPGYRREPSLSPKLTCLQNLKWSTAVEFCKKKSCPNPGEIRNGQIDVPGGILFGATISFSCNTGYKLFGSTSSFCLISGSSVQWSDPLPECREIYCPAPPQIDNGIIQGERDHYGYRQSVTYACNKGFTMIGEHSIYCTVNNDEGEWSGPPPECRGKS ?
Result: 1
